assay-system: Aldehyde dehydrogenase, mitochondrial (Rattus norvegicus)
Sequence (P11884 whole entry): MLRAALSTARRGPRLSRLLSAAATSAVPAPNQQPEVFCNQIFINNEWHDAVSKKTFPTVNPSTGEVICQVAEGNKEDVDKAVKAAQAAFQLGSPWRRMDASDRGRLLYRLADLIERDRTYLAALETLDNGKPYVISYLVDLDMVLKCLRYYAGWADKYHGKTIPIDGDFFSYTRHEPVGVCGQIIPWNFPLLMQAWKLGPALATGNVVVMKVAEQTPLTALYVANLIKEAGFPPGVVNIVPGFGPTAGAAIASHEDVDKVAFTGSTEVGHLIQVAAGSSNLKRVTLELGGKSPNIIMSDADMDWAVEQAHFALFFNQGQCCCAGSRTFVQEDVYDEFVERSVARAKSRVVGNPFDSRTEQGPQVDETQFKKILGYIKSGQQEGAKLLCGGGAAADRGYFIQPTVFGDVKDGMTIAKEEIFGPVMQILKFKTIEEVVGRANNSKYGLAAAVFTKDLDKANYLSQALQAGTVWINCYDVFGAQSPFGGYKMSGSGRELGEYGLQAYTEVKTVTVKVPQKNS
assay-procedure: Inhibition of recombinant rat ALDH activity in liver mitochondria
pIC50: −log10 of the molar value.

# smiles-record, pIC50
records = [
    ("CN1CCN(C(=S)SSC(=S)N2CCN(C)CC2)CC1", 4.80),
]

====

assay-system: Monoglyceride lipase (Homo sapiens, UniProt Q99685, C208A)
assay-procedure: Inhibition of human MGL C208A mutant using [3H]2-oleoylglycerol substrate
readout-label: IC50 (µM)

# smiles-record, assay-system, value-reported
measured = [
    ("CN1CCN(C(=S)SSC(=S)N2CCN(C)CC2)CC1", "Monoglyceride lipase (Homo sapiens, UniProt Q99685, C208A)", 8.32),
]

====

Reported pIC50 by item:
assay-system: Fatty-acid amide hydrolase 1 (Homo sapiens)
Sequence (O00519 whole entry): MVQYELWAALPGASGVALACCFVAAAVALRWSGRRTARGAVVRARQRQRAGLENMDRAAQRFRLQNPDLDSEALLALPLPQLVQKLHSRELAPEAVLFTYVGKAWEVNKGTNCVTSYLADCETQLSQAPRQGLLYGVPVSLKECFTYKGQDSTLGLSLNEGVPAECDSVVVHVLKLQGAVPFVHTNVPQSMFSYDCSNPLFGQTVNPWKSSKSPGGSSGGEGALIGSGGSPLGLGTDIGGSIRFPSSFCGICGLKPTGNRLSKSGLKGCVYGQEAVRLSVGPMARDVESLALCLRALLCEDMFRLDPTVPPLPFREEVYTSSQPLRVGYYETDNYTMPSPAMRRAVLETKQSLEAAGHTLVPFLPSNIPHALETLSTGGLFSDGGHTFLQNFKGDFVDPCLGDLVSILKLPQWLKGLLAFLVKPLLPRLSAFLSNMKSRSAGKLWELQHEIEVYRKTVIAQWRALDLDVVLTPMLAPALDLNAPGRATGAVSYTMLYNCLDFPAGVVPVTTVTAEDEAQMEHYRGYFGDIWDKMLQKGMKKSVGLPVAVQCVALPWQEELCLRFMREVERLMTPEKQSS
assay-procedure: Inhibition of human recombinant FAAH-maltose binding protein
pIC50: −log10 of the molar value.
readout-label: pIC50

# smiles-record, qual, value-reported
measured = [
    ("CN1CCN(C(=S)SCSC(=S)N2CCN(C)CC2)CC1", "<", 3.00),
    ("CCN(CC)C(=S)SCSC(=S)N(CC)CC", "<", 3.00),
    ("CN1CCN(C(=S)SSC(=S)N2CCN(C)CC2)CC1", "=", 3.70),
    ("CN(C)C(=S)SSC(=S)N(C)C", "=", 4.35),
    ("S=C(SSC(=S)N1CCN(c2ccccc2)CC1)N1CCN(c2ccccc2)CC1", "=", 3.87),
    ("CCCCC/C=C\\C/C=C\\C/C=C\\C/C=C\\CCCCN1C(=O)CCC1=O", "=", 5.66),
]

====

assay-system: Monoglyceride lipase (Homo sapiens, UniProt Q99685)
Sequence (Q99685 whole entry): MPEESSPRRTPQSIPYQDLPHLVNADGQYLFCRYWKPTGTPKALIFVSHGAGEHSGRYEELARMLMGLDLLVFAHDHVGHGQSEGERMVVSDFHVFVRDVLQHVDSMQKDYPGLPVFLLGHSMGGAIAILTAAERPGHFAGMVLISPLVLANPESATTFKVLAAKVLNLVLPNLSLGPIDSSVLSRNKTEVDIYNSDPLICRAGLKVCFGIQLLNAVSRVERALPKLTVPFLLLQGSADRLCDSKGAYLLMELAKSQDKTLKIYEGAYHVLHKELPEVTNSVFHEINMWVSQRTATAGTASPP
pIC50: −log10 of the molar value.
Reported pIC50 by item:
readout-label: pIC50

# smiles-record, assay-system, readout-label, value-reported
rows = [
    ("S=C(SSC(=S)N1CCC(Cc2ccccc2)CC1)N1CCC(Cc2ccccc2)CC1", "Monoglyceride lipase (Homo sapiens, UniProt Q99685)", "pIC50", 5.16),
    ("CCCCC/C=C\\C/C=C\\C/C=C\\C/C=C\\CCCCN1C(=O)CCC1=O", "Monoglyceride lipase (Homo sapiens, UniProt Q99685)", "pIC50", 5.95),
    ("CN(Cc1ccccc1)C(=S)SSC(=S)N(C)Cc1ccccc1", "Monoglyceride lipase (Homo sapiens, UniProt Q99685)", "pIC50", 6.36),
    ("CCN(Cc1ccccc1)C(=S)SSC(=S)N(CC)Cc1ccccc1", "Monoglyceride lipase (Homo sapiens, UniProt Q99685)", "pIC50", 5.39),
]
